assayMetric: melting point (°C)
Only the number, expressed in °C, is required.

Input: Consider the molecule shown here: COC(=O)c1ccccc1CSc1nnc(Cn2nc(C)c(Br)c2C)o1 [Compound 37] What is its recorded melting point?
Output: 123.6

Input: I have this molecule here, Cc1ccc(Cc2nnc(/C=C/c3ccc(F)cc3Br)o2)cc1Br [Compound 265] , and I need its recorded melting point.
Output: 152.6

Input: Report melting point for Fc1ccc(/C=C/c2nnc(Cc3nccc4ccccc34)o2)c(Cl)c1 [Compound 237] please.
Output: 171.4

Input: Item under review: Fc1ccc(/C=C/c2nnc(Cc3ccccc3)o2)c(Cl)c1 [Compound 158] . Reported melting point?
Output: 125.9

Input: Would you kindly share the measured melting point for Cc1nn(C(=O)c2ccc(Sc3ccccc3C(C)C)o2)c(C)c1Br [Compound 56] ?
Output: 169.7

Input: Quick one: melting point of CC(C)c1ccccc1CCc1nnc(Nc2ccc(Br)cc2)o1 [Compound 84] ?
Output: 175.4

Input: Request the reported melting point associated with Fc1ccc(/C=C/c2nnc(Cc3cccc(Cl)c3F)o2)c(Cl)c1 [Compound 291]
Output: 118.1

Input: What melting point value was documented for this molecule, Brc1ccc(Cc2nc(/C=C/c3ccccc3)no2)cc1 [Compound 183] ?
Output: 78.4

###

Test system: A/California/07/2009 (H1N1)
Assay: Antiviral activity (drug efficacy evaluation by concentration) against A/California/07/2009 (H1N1)
Type: cell-based, A type influenza virus
Conditions: Influenza A virus, H1N1; read-out: EC50
Hi there, I'd appreciate the recorded EC50 for every entry that follows.

Input: Data request, read-out EC50, for Fc1ccc(/C=C/c2nnc(Cc3ccc(Br)c(F)c3)o2)c(Cl)c1 [Compound 184]
Output: > 50 µM

Input: Requested read-out: EC50. Entry: Fc1ccc(/C=C/c2nnc(Cc3ccccc3)o2)c(Cl)c1 [Compound 158]
Output: > 50 µM

Input: Field request: EC50 | item: Cc1ccccc1CCc1nnc(Nc2ccc(Br)cc2)o1 [Compound 89]
Output: > 50 µM

###

Can you tell me melting point for the items I'm about to list?
Dear colleague, please return just the value in °C, with no unit written.

Input: Any idea what melting point was measured for Cc1ccccc1CC1(c2nnc(Cc3ccc(Br)cc3)o2)CC1 ?
Output: 72.2

Input: Which melting point value is on record for O=C(NCc1nnc(SCc2ccccc2-c2ccccc2)o1)c1ccc(Br)cc1 ?
Output: 135.4

Input: Report melting point for CC(C)c1ccccc1/C=C/c1nnc(Cc2cccc3ccccc23)o1 please.
Output: 148.1

Input: Data request, read-out melting point, for FC(F)(F)c1ccccc1/C=C/c1nnc(Cc2cccc(Br)c2)o1
Output: 107.2

Input: # query: melting point of entry Clc1ccc(-c2ccccc2/C=C/c2nnc(Cc3ccc(Br)cc3)o2)cc1
Output: 123.7

Input: Recorded melting point for Fc1ccc(/C=C/c2nnc(Cc3cccc(Br)c3)o2)c(Br)c1 , please?
Output: 129.5

Input: What does the record list as melting point for Cc1nn(Cc2nnc(SCc3ccccc3-c3ccc(Cl)cc3)o2)c(C)c1Br ?
Output: 84.7

Input: # lookup: melting point of Cc1cc(F)cc(Cc2nnc(/C=C/c3ccc(F)cc3Cl)o2)c1
Output: 117

Input: For O=C(c1ccccc1)c1nnc(Cc2ccc(Br)cc2)o1 , what is its reported melting point?
Output: 139.9

Input: Fill blank: measured melting point of the compound Cc1cccc(C)c1Nc1nnc(CCc2ccccc2C(C)C)o1 is ____.
Output: 234.1

Input: Need melting point, item Fc1cccc(/C=C/c2nnc(Cc3cccc(Br)c3)o2)c1F
Output: 97.4

Input: Looking for the measured melting point of Fc1ccc(/C=C/c2nnc(Cc3cccc(Br)c3)o2)c(F)c1 , can you help?
Output: 87.7

Input: Sample Brc1ccc(Cc2nnc(/C=C/c3ccccc3-c3ccccc3)o2)cc1 — what was its melting point?
Output: 87.4

Input: Would you kindly share the measured melting point for Fc1ccc(/C=C/c2nnc(Cc3cccc(Cl)c3)o2)c(Cl)c1 ?
Output: 104

Input: Return reported melting point; argument: Cc1nn(Cc2nnc(SCc3cccc4ccccc34)o2)c(C)c1Br
Output: 112.1

Input: Consider the compound Cc1ccccc1CSc1ccc(C(=O)n2nc(C)c(Br)c2C)o1 and give its measured melting point.
Output: 101.2

Input: For Brc1ccc(Cc2noc(/C=C/c3ccccc3)n2)cc1 , what is its reported melting point?
Output: 86.7

Input: Given Fc1ccc(/C=C/c2nnc(Cc3cccc(C(F)F)c3)o2)c(Cl)c1 , state its recorded melting point.
Output: 108.1

Input: Can you share its melting point? I mean this compound: Fc1cccc(Cc2nnc(/C=C/c3ccc(F)cc3Cl)o2)c1
Output: 132.5

Input: Please look up its melting point: Cc1ccccc1CCc1nnc(Nc2ccc(Br)c(F)c2)o1
Output: 151.6

Input: I would be grateful if you could share the reported melting point for Fc1ccc(/C=C/c2nnc(Cc3ccc(F)c(Br)c3)o2)c(Br)c1 .
Output: 124.9

Input: Query (compound): Cc1ccccc1CCc1nnc(Nc2ccc(F)c(Cl)c2)o1 ; field requested: melting point
Output: 87

Input: // query melting point value for entry Cc1cccc(C)c1Nc1nnc(C(O)c2ccc(F)c(Cl)c2)o1 (stereo not shown)
Output: 185.8

Input: Which melting point is listed for CC(C)c1ccccc1/C=C/c1nnc(Cc2ccc(OC(F)(F)F)cc2)o1 ?
Output: 91.6

Input: Param item = CC(C)c1cccc(/C=C/c2nnc(Cc3ccc(Br)cc3)o2)c1 ; retrieve measured melting point.
Output: 61.8

Input: Entry Fc1ccc(/C=C/c2nnc(Cc3cccc4cccnc34)o2)c(Cl)c1 has what melting point?
Output: 171.9

Input: If you can, please state the reported melting point value of Fc1cc(Br)cc(Cc2nnc(/C=C/c3ccc(F)cc3Cl)o2)c1 .
Output: 143

Input: Need melting point of Fc1ccc(/C=C/c2nnc(Cc3ccc(Br)cc3)o2)c(Cl)c1 , thanks.
Output: 147.9

###

Everything with melting point lower than 100 °C is FALSE; everything else, including exactly 100 °C, is TRUE.

Input: Tell me whether melting point is at least 100 °C here: Brc1ccc(Cc2nnc(/C=C/c3ccccc3C3CCCCC3)o2)cc1
Output: TRUE

Input: I'd appreciate it if you could say whether Cc1nn(C(=O)c2ccc(Oc3ccccc3C(C)C)o2)c(C)c1Br has melting point at least equal to 100 °C.
Output: TRUE

Input: Hello, I need to know if Cc1cc(C(F)(F)F)ccc1/C=C/c1nnc(Cc2cccc(Br)c2)o1 has measured melting point not below 100 °C. Thanks!
Output: TRUE

Input: I'd appreciate it if you could say whether CC(=O)c1ccccc1CSc1nnc(Cn2nc(C)c(Br)c2C)o1 has melting point at least equal to 100 °C.
Output: FALSE

Input: Decide: melting point of CC(C)c1ccc(/C=C/c2nnc(Cc3ccc(Br)cc3)o2)cc1 >= 100 °C?
Output: TRUE

###

I'd appreciate it if you could supply CC50 values for the items below.
Experiment: in vitro
Details: CC50, beside the EC50 of c2

Input: Quick one: CC50 of Clc1cccc(Cl)c1/C=C/c1nnc(Cc2ccc(Br)cc2)o1 ?
Output: > 50 µM

Input: Record request: CC50 value, item FC(F)(F)Oc1ccc(Cc2nnc(SCc3ccccc3-c3ccccc3)o2)cc1
Output: > 50 µM

Input: Return reported CC50; argument: CC(C)c1ccccc1CCc1nnc(Cc2ccc(OC(F)(F)F)cc2)o1
Output: > 50 µM

Input: For the molecule shown here, Cc1ccc(/C=C/c2nnc(Cc3cccc(Br)c3)o2)c(C)c1 , give the reported CC50.
Output: > 50 µM

Input: Given the molecule Brc1cccc(Cc2nnc(SCc3ccccc3-c3ccccc3)o2)c1 , what is its reported CC50?
Output: > 50 µM

Input: Entry FC(F)(F)c1ccc(Cl)c(/C=C/c2nnc(Cc3cccc(Br)c3)o2)c1 : reported CC50 = ?
Output: > 50 µM

Input: // query CC50 value for entry CC(=Cc1ccccc1C)c1nnc(Cc2ccc(Br)cc2)o1
Output: > 50 µM

Input: Reported CC50 for CC(C)c1cccc(/C=C/c2nnc(Cc3ccc(Br)cc3)o2)c1 : what is it?
Output: > 50 µM

###

Rule for this label: yes means melting point is less than 100 °C; no means melting point is at least 100 °C.

Input: Criterion: melting point strictly below 100 °C. Is it met by COc1ccccc1/C=C/c1nnc(Cc2ccc(Br)cc2)o1 ?
Output: no

Input: Dear colleague, could you confirm whether melting point of Clc1cccc(/C=C/c2nnc(Cc3ccc(Br)cc3)o2)c1 falls below 100 °C? Thanks.
Output: no

Input: Threshold test, melting point < 100 °C: Cc1cccc(C)c1Nc1nnc(C(=O)c2ccccc2)o1
Output: no

Input: Strictly below 100 °C: is that where melting point of Clc1ccc(/C=C/c2nnc(Cc3ccc(Br)cc3)o2)cc1 sits?
Output: no

Input: For COc1ccccc1/C=C/c1nnc(Nc2ccc(Br)cc2)o1 , is the recorded melting point below the cut-off of 100 °C?
Output: no

Input: Say whether its melting point is strictly beneath 100 °C. Entry: O=C(Nc1ccc(F)cc1Cl)c1nnc(Cc2cccc(Br)c2)o1
Output: no

Input: Check if melting point falls below 100 °C for Cn1cc(Cc2nnc(/C=C/c3ccc(F)cc3Cl)o2)c2ccccc21 .
Output: no

Input: Determine if c1ccc(-c2cccc(CSc3nnc(Cn4cc(-c5ccccc5)cn4)o3)c2)cc1 shows melting point strictly lower than 100 °C.
Output: yes

Input: # strict comparison: is reported melting point < 100 °C? input = CCn1c(Cn2nc(C)c(Br)c2C)nnc1SCc1ccccc1-c1ccccc1
Output: no

Input: Strictly below 100 °C in melting point? Fc1ccc(/C=C/c2nnc(Cc3cc(Br)ccc3F)o2)c(Cl)c1
Output: no

Input: Does the reported melting point of the following compound sit strictly below 100 °C? CC(C)c1ccccc1/C=C/c1nnc(Cc2ccc(Br)cc2F)o1
Output: yes

Input: Could you please tell me whether melting point recorded for Cc1ccc(Cc2nnc(/C=C/c3ccc(F)cc3F)o2)cc1Br is less than 100 °C?
Output: no

Input: # TODO verify melting point < 100 °C strictly for this compound: Fc1ccc(/C=C/c2nnc(Cc3cccc(Br)c3)o2)c(C(F)(F)F)c1
Output: no

Input: Please check: melting point for Fc1ccc(/C=C/c2nnc(Cc3cccc(Br)c3)o2)cc1 , strictly under 100 °C or not?
Output: yes

Input: # strict comparison: is reported melting point < 100 °C? input = Brc1ccc(Cc2nnc(/C=C/c3ccccc3Br)o2)cc1
Output: no

Input: Identify whether the compound O=S(=O)(Cc1ccccc1-c1ccccc1)c1nnc(Cc2ccc(Br)cc2)o1 records melting point below 100 °C.
Output: no

Input: Lab note: confirm whether the reported melting point for this compound is below 100 °C, equality not counting. compound: FC(F)(F)Oc1ccccc1/C=C/c1nnc(Cc2cccc(Br)c2)o1
Output: no

Input: Regarding Cc1nn(Cc2nnc(SCc3cccc(-c4ccccc4)c3)o2)c(C)c1Br , kindly confirm whether its melting point is beneath 100 °C.
Output: yes

Input: melting point strictly < 100 °C for this compound? Fc1ccc(/C=C/c2nnc(Cc3cc(Br)ccn3)o2)c(Cl)c1
Output: no

Input: Hi there! Is melting point for CC(C)c1ccccc1/C=C/c1nc(Cc2ccc(Br)cc2)no1 below 100 °C, do you know?
Output: yes

Input: Quick check: melting point of Clc1ccc2oc(-c3nnc(Cc4ccc(Br)cc4)o3)cc2c1 under 100 °C?
Output: no

Input: In the record for Cc1ccc(/C=C/c2nnc(Cc3cccc(Br)c3)o2)c(C)c1 , is melting point less than 100 °C?
Output: yes

Input: Given Fc1ccc(/C=C/c2nnc(Nc3ccc(Br)c(F)c3)o2)c(Cl)c1 , is recorded melting point strictly lower than 100 °C?
Output: no

Input: Is melting point of Brc1ccc(Cc2nnc(/C=C/c3cccc4ccccc34)o2)cc1 strictly below 100 °C?
Output: no

Input: Check if melting point falls below 100 °C for Brc1ccc(Cc2nnc(/C=C/c3ccccc3)o2)cc1 .
Output: no

Input: Just wondering, is melting point of Cc1ccc(Cc2nnc(/C=C/c3ccccc3C(C)C)o2)cc1Br below 100 °C?
Output: no

Input: Please check: melting point for c1ccc(-c2ccccc2CSc2nnc(-c3cnn(-c4ccccc4)c3)o2)cc1 , strictly under 100 °C or not?
Output: no

Input: For Cc1cc(Br)cc(C)c1Nc1nnc(SCc2ccccc2-c2ccccc2)o1 , is the recorded melting point below the cut-off of 100 °C?
Output: no
